# Tubulin Assay Init. Peak values compiled below
Test system: tubulin
Test: Tubulin binding assay (Tubulin Assay), method of Parness et al.
Conditions: compared to taxol and taxotere
Could you respond with only the numeric value?

Here are 3 compounds together with their reported answers.
COc1ccc([C@H](NC(=O)c2ccc(C(C)(C)C)cc2)[C@@H](O)C(=O)O[C@H]2C[C@@]3(O)[C@@H](OC(=O)c4ccccc4)[C@@H]4[C@]5(OC(C)=O)CO[C@@H]5C[C@H](O)[C@@]4(C)C(=O)[C@H](OC(C)=O)C(=C2C)C3(C)C)cc1: 24
CC(=O)O[C@H]1C(=O)[C@@]2(C)[C@H]([C@H](OC(=O)c3ccccc3)[C@]3(O)C[C@H](OC(=O)[C@H](O)[C@@H](NC(=O)c4ccccc4)c4ccc(Br)cc4)C(C)=C1C3(C)C)[C@]1(OC(C)=O)CO[C@@H]1C[C@@H]2O: 5
COc1ccc([C@H](NC(=O)c2ccc(C)cc2)[C@@H](O)C(=O)O[C@H]2C[C@@]3(O)[C@@H](OC(=O)c4ccccc4)[C@@H]4[C@]5(OC(C)=O)CO[C@@H]5C[C@H](O)[C@@]4(C)C(=O)[C@H](OC(C)=O)C(=C2C)C3(C)C)cc1: 77

Now consider the entry below.
Quick one: Tubulin Assay Init. Peak for `CC(=O)O[C@H]1C(=O)[C@@]2(C)[C@H]([C@H](OC(=O)c3ccccc3)[C@]3(O)C[C@H](OC(=O)[C@H](O)[C@@H](NC(=O)c4ccc(C)cc4)c4ccc(F)cc4)C(C)=C1C3(C)C)[C@]1(OC(C)=O)CO[C@@H]1C[C@@H]2O` ?
85

---

Entries annotated with measured Tubulin Assay Init. Peak
Tested on: tubulin
Experiment: Tubulin binding assay (Tubulin Assay), method of Parness et al.
Details: compared to taxol and taxotere
Answer field: number only, no words.

CC(=O)O[C@H]1C(=O)[C@@]2(C)[C@H]([C@H](OC(=O)c3ccccc3)[C@]3(O)C[C@H](OC(=O)[C@H](O)[C@@H](NC(=O)c4ccccc4)c4ccc5c(c4)OCO5)C(C)=C1C3(C)C)[C@]1(OC(C)=O)CO[C@@H]1C[C@@H]2O [Example 6]: 53
CC(=O)O[C@H]1C(=O)[C@@]2(C)[C@H]([C@H](OC(=O)c3ccccc3)[C@]3(O)C[C@H](OC(=O)[C@H](O)[C@@H](NC(=O)c4ccc(F)cc4)c4ccccc4)C(C)=C1C3(C)C)[C@]1(OC(C)=O)CO[C@@H]1C[C@@H]2O [Example 16, N-debenzoyl-N-(4-fluorobenzoyl) taxol]: 66

From here, focus on the item given below.
Please give the measured Tubulin Assay Init. Peak for this molecule: CC(=O)O[C@H]1C(=O)[C@@]2(C)[C@H]([C@H](OC(=O)c3ccccc3)[C@]3(O)C[C@H](OC(=O)[C@H](O)[C@@H](NC(=O)c4ccccc4)c4ccc(F)cc4)C(C)=C1C3(C)C)[C@]1(OC(C)=O)CO[C@@H]1C[C@@H]2O [Example 9, 3'-desphenyl-3'-(4-fluorophenyl) taxol]
100

---

System: tubulin
Assay: Tubulin binding assay (Tubulin Assay), method of Parness et al.
Conditions: compared to taxol and taxotere
Entries annotated with measured Tubulin Assay Rel. Rate
Output spec: single numeric token, no unit.

CC(=O)O[C@H]1C(=O)[C@@]2(C)[C@H]([C@H](OC(=O)c3ccccc3)[C@]3(O)C[C@H](OC(=O)[C@H](O)[C@@H](NC(=O)c4ccc(Cl)cc4)c4ccc(F)cc4)C(C)=C1C3(C)C)[C@]1(OC(C)=O)CO[C@@H]1C[C@@H]2O [Example 18]: 92
CC(=O)O[C@H]1C(=O)[C@@]2(C)[C@H]([C@H](OC(=O)c3ccccc3)[C@]3(O)C[C@H](OC(=O)[C@H](O)[C@@H](NC(=O)c4ccc(F)cc4)c4ccccc4)C(C)=C1C3(C)C)[C@]1(OC(C)=O)CO[C@@H]1C[C@@H]2O [Example 16, N-debenzoyl-N-(4-fluorobenzoyl) taxol]: 90

Okay, next one:
Any idea what its Tubulin Assay Rel. Rate is? The molecule is CC(=O)O[C@H]1C(=O)[C@@]2(C)[C@H]([C@H](OC(=O)c3ccccc3)[C@]3(O)C[C@H](OC(=O)[C@H](O)[C@@H](NC(=O)c4ccc(Br)cc4)c4ccccc4)C(C)=C1C3(C)C)[C@]1(OC(C)=O)CO[C@@H]1C[C@@H]2O [Example 11, N-debenzoyl-N-(4-bromobenzoyl) taxol]
88
